Hi there, I'd appreciate the recorded EC50 for every entry that follows.
Biological target: recombinant HA subtype H5 (A/Vietnam/1203/04 (H5N1)) (influenza A virus)
Assay: ELISA, rHA coated
One number for each entry, in µg/mL.

// for each binder below, give its EC50
1. Antibody 10 (antibody, V domains shown) VH: QVQLQQSGPGLVKPSQTLSLTCAISGDSVSSNSATWNWIRQSPSRGLEWLGRTYYRSKWYNDYADFLKRRITINPDTSNNEVSLRLTSVTPDDTALYYCARGGHITVFGVNIDAFDVWGQGTMVTVSS VL: DIQMTQSPSSLSASVGDRITISCRTSQSLRSYLHWYQQKPGKAPKLLIYASSTLQSGVPSRFSGSGSGTDFTLTISNLQPEDFATYYCQLSRTFGQGTKVEIK
2. Antibody 6 (antibody, V domains shown) VH: QVQLQQSGPGLVKPSQTLSLTCAISGDRVSSNSAVWNWIRQSPSRGLEWLGRTYYRSKWYYDYAESVKSRIVIDPDTSKNQVSLQLNSVTPEDSAIYYCARGGHITEFGLNIDAYDIWGQGAMVTVSS VL: DIQMTQSPSSLSASVGDRVTISCRAQSLSSYLHWYQQKPGQPPKLLIYAATTLQSGVPSRFSGSGSGTDFTLTISTFQAEDVATYYCQQSRTFGQGTKVEIK
3. Antibody 8 (antibody, V domains shown) VH: QVQLQQSGPGLVKPSQTLSLTCVISGDTVSSNRATWNWMRQSPLRGLEWLGRTYYRSKWYNDYAVSVKSRVVINPDTSKNQVSLQLNTVTPDDSGVYFCARGGHITVFGVNIDAFDIWGLGTKVTVSS VL: DIQMTQSPSSLSASVGDRVTISCRASQRLNSYLHWYQQTPGQAPKLLIYATSTLQSGVSPRFSGSGSGTDFTLTISSLQPEDVATYYCQLSRTFGHGTKVEIK
4. Antibody 5 (antibody, V domains shown) VH: QVQLQQSGPGLVKPSQTLSLTCAISGDRVSSNSAVWNWIRQSPSRGLEWLGRTYYRSKWYYDYAESVKSRIVIDPDTSKNQVSLQLNSVTPEDSAIYYCARGGHITVFGLNIDAYDIWGQGAMVTVSS VL: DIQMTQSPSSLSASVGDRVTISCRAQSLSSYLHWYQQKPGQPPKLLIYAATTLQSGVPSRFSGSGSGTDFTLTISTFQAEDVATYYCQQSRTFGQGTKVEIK

Response:
[0.058, 0.256, 0.044, 0.041]
